test system: Mus musculus; test: Hypoglycemic effect in eight week old female db/db mouse assessed as reduction in blood glucose level at 30 mg/kg, intragastric for 3 weeks; assay type: functional; details: po, 504 h
The entries below come with measured inhibition in vivo at 30 mg/kg values attached.
Answer shape: numeric part, then the unit.

Example results:
>>> result("Cc1c(CC(=O)O)c2cc(OCc3ccccc3)ccc2n1C(=O)c1ccc(Cl)cc1")
"13.5%"
>>> result("CCc1ccc(CCOc2ccc(CC3SC(=O)NC3=O)cc2)nc1 (centres undefined)")
"30.6%"
>>> result("C[C@@H]1[C@@H](CC(=O)O)c2cc(OCc3ccccc3)ccc2N1C(=O)c1ccncc1")
"14.9%"

Proceed to the following item.
INPUT: Give its inhibition in vivo at 30 mg/kg value. Item: `Cc1c(CCCC(=O)O)c2cc(OCc3ccccc3)ccc2n1S(=O)(=O)c1ccc(Cl)cc1`
OUTPUT: 13.9%
